Recorded values, source PubChem BioAssay.

Let's look at some compounds and their measured GFP response vs DMSO.
protocol.description: modulators of MEP2-GFP levels in yeast, confirmation, S. cerevisiae, flow cytometry GFP, cherry picks (AID 2272);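 note: ratio of well signal to plate DMSO mean so 100% equals DMSO level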
cond: S. cerevisiae MEP2-GFP strain, 3 h, at 10 µM, stronger effect = higher value
Entry rule: numbers only, all in %.

Some solved cases for reference:
[
  {
    "compound": "Cn1ncc2c(O/N=C(\\N)c3ccc(C(C)(C)C)cc3)ncnc21",
    "display.unit": "%",
    "observed.result": 121
  },
  {
    "compound": "Cc1cc(OCC(=O)Nc2ccc(S(=O)(=O)N3CCN(C)CC3)cc2)ccc1Br",
    "display.unit": "%",
    "observed.result": 101
  },
  {
    "compound": "CCCCC(=O)O[C@]1(C(=O)CO)CC[C@H]2[C@@H]3CCC4=CC(=O)CC[C@]4(C)[C@H]3[C@@H](O)C[C@@]21C",
    "display.unit": "%",
    "observed.result": 105
  },
  {
    "compound": "O=C(Nc1cc(Sc2ccccn2)cc([N+](=O)[O-])c1)c1ccc(Cl)cc1",
    "display.unit": "%",
    "observed.result": 100
  },
  {
    "compound": "CSC1=NC(=O)/C(=C/c2ccc(SC)cc2)S1",
    "display.unit": "%",
    "observed.result": 110
  }
]

GFP response vs DMSO recorded for this compound, Cc1ccc(N(C(=O)CNC(=O)c2ccco2)C(C(=O)NC2CCCC2)c2cccnc2)cc1C (stereo not drawn) , is 99

GFP response vs DMSO recorded for this compound, C/C(=N/NC(=O)c1ccc(C(C)(C)C)cc1)c1ccccn1 , is 126

GFP response vs DMSO recorded for this compound, O=C(Cn1c(=O)oc2cc(S(=O)(=O)N3CCCC3)ccc21)Nc1ccccc1Br , is 102

GFP response vs DMSO recorded for this compound, CC1CN(c2nc3ccccn3c(=O)c2/C=C(\C#N)C(N)=O)CC(C)O1 (stereo not drawn) , is 106

GFP response vs DMSO recorded for this compound, COc1ccc(N2C(=O)C(Cl)=C(Nc3ccccc3O)C2=O)cc1 , is 112
